# STUDY_TARGET: T1, VACV L1 protein (vaccinia virus, UniProt P07612 1-185)
# T1 sequence: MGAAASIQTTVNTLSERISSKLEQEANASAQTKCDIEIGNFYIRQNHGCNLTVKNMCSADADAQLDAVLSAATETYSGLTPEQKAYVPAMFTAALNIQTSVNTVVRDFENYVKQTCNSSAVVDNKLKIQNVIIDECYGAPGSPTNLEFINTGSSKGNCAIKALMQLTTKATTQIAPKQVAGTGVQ
# EXPERIMENT: cell-based or functional assay
ASSAY_METRIC: PRNT Emax, VACV MV+C' (%)
Express your answer in %, writing the number without its unit.

BINDER: MPXV-26 (antibody, V domains shown, human IgG1, anti-L1) VH: QVQLVQSGGGLIQPGGSLRLSCVVSGFNVATNYMSWVRQAPGKGLEWVSVIYSGGSTYYADSVKGRFTISRDNSKNTVFLQMNSLRPEDTAAYYCAKGGGLGLDYWGQGTLVTVSS VL: QSALTQPPSASGSPGQSVTITCTGSSSDVGGYNYVSWYQQHPGKAPKVVIYEVNKRPSGVPHRFSGSKSGNTASLTVSGLQAEDEADYYCSSYAGTETVAFGGGTKLTVL
U: %
PRNT Emax, VACV MV+C': 80
//
BINDER: VACV-33 (antibody, V domains shown, human IgG1, anti-L1) VH: QLQLQESGPGLVKPSETLSLTCTVSGGSISSGGYYWGWIRQPPGKGLEWIASIYYSGSTYYNPSLKSRVTISVDTSKTQFSLKLSSVTAADTAVYYCARQSSSTGGFHYWGQGTLVTVSS VL: QSVLTQPPSVSGAPGQRVTISCTGSSSNIGAGYDVHWYQHLPGTAPKLLIYGNSNRPSGVPDRFSGSKSGTSASLAITGLQAEDEANYYCQSYDSSLSGREVFGGGTQLTVL
U: %
PRNT Emax, VACV MV+C': 71

Now consider the entry below.
Measured PRNT Emax, VACV MV+C' of VACV-34 (antibody, V domains shown, human IgG1, anti-L1) VH: QVQLVESGGGLVQPGRSLRLSCAASGFTFDDYAMHWVRQAPGKGLEWVSGLSWNSGSIGYADSVKGRFTISRDNAKNSLYLQMNSLRAEDTALYYCAKETEKYYYDSSGYDYWGQGTLVTVSS VL: EIVLTQSPGTLSLSPGERATLSCRASQSVSSIYLAWYQQKPGQAPRLLIYGASSRATGIPDRFSGSGSGTDFTLTISRLEPEDFAVYYCQQYGSRGTFGQGTKLEIK : 78
